These entries and their values trace back to ChEMBL document CHEMBL4765227.

Test system: HCC 2998
Assay: Growth inhibition of human HCC 2998 cells at 10 uM incubated for 48 hrs by sulforhodamine B assay relative to control
Assay type: functional
Settings: read-out: GI
// reported inhibition of growth at 10 µM for each item listed
The figure you give is taken to be in %; do not add the unit.

Recorded inhibition of growth at 10 µM, per entry:
{"line.notation": "O=C(Cn1cnc2ccccc21)Nc1ccc(-c2nc3ccccc3s2)cc1", "measure.unit": "%", "inhibition of growth at 10 µM": 24.9}
{"line.notation": "O=C(CN1CCCCC1)Nc1ccc(-c2nc3ccccc3s2)cc1", "measure.unit": "%", "inhibition of growth at 10 µM": 9.72}
{"line.notation": "O=C(CNc1nnc(-c2ccc(Cl)cc2)o1)Nc1ccc(-c2nc3ccccc3s2)cc1", "measure.unit": "%", "inhibition of growth at 10 µM": 6.46}
{"line.notation": "COc1ccc(NCC(=O)Nc2ccc(-c3nc4ccccc4s3)cc2)cc1", "measure.unit": "%", "inhibition of growth at 10 µM": 3.49}
{"line.notation": "Cc1cc(C)n(CC(=O)Nc2ccc(-c3nc4ccccc4s3)cc2)n1", "measure.unit": "%", "inhibition of growth at 10 µM": 7.15}

May I ask what inhibition of growth at 10 µM has been recorded for `O=C(CNCc1ccccc1)Nc1ccc(-c2nc3ccccc3s2)cc1` ?
9.91

Now consider `O=C(Cn1nnc2ccccc21)Nc1ccc(-c2nc3ccccc3s2)cc1` and answer again.
6.26

Now consider `NS(=O)(=O)c1ccc(NCC(=O)Nc2ccc(-c3nc4ccccc4s3)cc2)cc1` and answer again.
12.4

Now consider `O=C(CNc1nc(-c2ccc(Cl)cc2)cs1)Nc1ccc(-c2nc3ccccc3s2)cc1` and answer again.
2.47

Now consider `O=C(CNc1ccc(Cl)cc1)Nc1ccc(-c2nc3ccccc3s2)cc1` and answer again.
116

---

Target: Monoglyceride lipase (Homo sapiens, UniProt Q99685)
Sequence (Q99685 whole entry): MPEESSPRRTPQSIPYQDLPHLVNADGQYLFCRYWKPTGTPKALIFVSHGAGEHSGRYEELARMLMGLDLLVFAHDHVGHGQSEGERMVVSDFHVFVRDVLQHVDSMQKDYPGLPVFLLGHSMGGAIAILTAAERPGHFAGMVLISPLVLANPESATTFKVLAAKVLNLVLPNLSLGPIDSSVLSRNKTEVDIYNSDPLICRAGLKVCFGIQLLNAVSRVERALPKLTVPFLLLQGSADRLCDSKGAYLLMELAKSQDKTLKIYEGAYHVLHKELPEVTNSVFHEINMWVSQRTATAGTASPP
Assay: Inhibition of human MAGL transfected in human HEK293T cells assessed as reduction in ABPP binding by competitive binding assay
Assay type: cell-based
experimental.endpoint: pIC50
Lab note — pIC50 values are minus log10 of concentrations in M.

May I ask what pIC50 has been recorded for `O=C(OC(C(F)(F)F)C(F)(F)F)N1CCC(C(O)(c2ccc3c(c2)OCO3)c2ccc3c(c2)OCO3)CC1` ?
8.23

---

// reported inhibition of growth at 10 µM for each item listed
System: NCI-H460
Assay: Growth inhibition of human NCI-H460 cells at 10 uM incubated for 48 hrs by sulforhodamine B assay relative to control
Assay type: functional
Details: read-out: GI
The figure you give is taken to be in %; do not add the unit.

Recorded inhibition of growth at 10 µM, per entry:
{"line.notation": "O=C(CNc1ccccc1)Nc1ccc(-c2nc3ccccc3s2)cc1", "inhibition of growth at 10 µM, %": 0.08}
{"line.notation": "O=C(Cn1ccnc1)Nc1ccc(-c2nc3ccccc3s2)cc1", "inhibition of growth at 10 µM, %": 20.2}
{"line.notation": "O=C(Cn1cnc2ccccc21)Nc1ccc(-c2nc3ccccc3s2)cc1", "inhibition of growth at 10 µM, %": 34.3}

May I ask what inhibition of growth at 10 µM has been recorded for `O=C(CNCc1ccccc1)Nc1ccc(-c2nc3ccccc3s2)cc1` ?
3.57

Now consider `CN1CCN(CC(=O)Nc2ccc(-c3nc4ccccc4s3)cc2)CC1` and answer again.
15.3

Now consider `O=C(Cn1ccc2ccccc21)Nc1ccc(-c2nc3ccccc3s2)cc1` and answer again.
-4.62

Now consider `O=C(CNc1ccc(Cl)cc1)Nc1ccc(-c2nc3ccccc3s2)cc1` and answer again.
12.9

Now consider `O=C(CN1CCCCC1)Nc1ccc(-c2nc3ccccc3s2)cc1` and answer again.
-1.42

Now consider `O=C(Cn1cncn1)Nc1ccc(-c2nc3ccccc3s2)cc1` and answer again.
2.97

Now consider `NS(=O)(=O)c1ccc(NCC(=O)Nc2ccc(-c3nc4ccccc4s3)cc2)cc1` and answer again.
7.45

Now consider `O=C(CN1CCOCC1)Nc1ccc(-c2nc3ccccc3s2)cc1` and answer again.
0.34

---

Tested on: SF-268
Assay: Growth inhibition of human SF-268 cells at 10 uM incubated for 48 hrs by sulforhodamine B assay relative to control
Type: functional
Conditions: read-out: GI
// reported inhibition of growth at 10 µM for each item listed
Give the value; after it, write the unit.

Recorded inhibition of growth at 10 µM, per entry:
{"line.notation": "NS(=O)(=O)c1ccc(NCC(=O)Nc2ccc(-c3nc4ccccc4s3)cc2)cc1", "inhibition of growth at 10 µM": "74.9%"}
{"line.notation": "O=C(CN(c1ccccc1)c1ccccc1)Nc1ccc(-c2nc3ccccc3s2)cc1", "inhibition of growth at 10 µM": "-3.74%"}
{"line.notation": "O=C(CNCc1ccccc1)Nc1ccc(-c2nc3ccccc3s2)cc1", "inhibition of growth at 10 µM": "3.99%"}

May I ask what inhibition of growth at 10 µM has been recorded for `O=C(CN1CCOCC1)Nc1ccc(-c2nc3ccccc3s2)cc1` ?
-10.3%

Now consider `O=C(CNc1ccccc1)Nc1ccc(-c2nc3ccccc3s2)cc1` and answer again.
12.1%

Now consider `O=C(Cn1cnc2ccccc21)Nc1ccc(-c2nc3ccccc3s2)cc1` and answer again.
14.7%

Now consider `O=C(CNc1nc(-c2ccc(Cl)cc2)cs1)Nc1ccc(-c2nc3ccccc3s2)cc1` and answer again.
9.23%

---

Test system: A549
Test: Growth inhibition of human A549/ATCC cells at 10 uM incubated for 48 hrs by sulforhodamine B assay relative to control
Assay type: functional
Settings: read-out: GI
experimental.endpoint: inhibition of growth at 10 µM (%)
The figure you give is taken to be in %; do not add the unit.

Recorded inhibition of growth at 10 µM, per entry:
{"line.notation": "O=C(Cn1nnc2ccccc21)Nc1ccc(-c2nc3ccccc3s2)cc1", "reported.measurement": 6.45}
{"line.notation": "O=C(CN1CCOCC1)Nc1ccc(-c2nc3ccccc3s2)cc1", "reported.measurement": 6.19}
{"line.notation": "CN1CCN(CC(=O)Nc2ccc(-c3nc4ccccc4s3)cc2)CC1", "reported.measurement": 11.4}
{"line.notation": "O=C(Cn1ccnc1)Nc1ccc(-c2nc3ccccc3s2)cc1", "reported.measurement": 29.7}
{"line.notation": "O=C(CNc1ccc(Cl)cc1)Nc1ccc(-c2nc3ccccc3s2)cc1", "reported.measurement": 11}

May I ask what inhibition of growth at 10 µM has been recorded for `O=C(CNc1ccccc1)Nc1ccc(-c2nc3ccccc3s2)cc1` ?
9.72

---

// reported inhibition of growth at 10 µM for each item listed
Test system: UACC-257
Assay: Growth inhibition of human UACC-257 cells at 10 uM incubated for 48 hrs by sulforhodamine B assay relative to control
Type: functional
Conditions: read-out: GI
The figure you give is taken to be in %; do not add the unit.

Recorded inhibition of growth at 10 µM, per entry:
{"line.notation": "NS(=O)(=O)c1ccc(NCC(=O)Nc2ccc(-c3nc4ccccc4s3)cc2)cc1", "measure.unit": "%", "inhibition of growth at 10 µM": 2.83}
{"line.notation": "Cc1ccc(NCC(=O)Nc2ccc(-c3nc4ccccc4s3)cc2)cc1", "measure.unit": "%", "inhibition of growth at 10 µM": 5.3}
{"line.notation": "O=C(Cn1cncn1)Nc1ccc(-c2nc3ccccc3s2)cc1", "measure.unit": "%", "inhibition of growth at 10 µM": -2.17}
{"line.notation": "O=C(Cn1c2ccccc2c2ccccc21)Nc1ccc(-c2nc3ccccc3s2)cc1", "measure.unit": "%", "inhibition of growth at 10 µM": -1.24}
{"line.notation": "O=C(CNc1nc(-c2ccc(Cl)cc2)cs1)Nc1ccc(-c2nc3ccccc3s2)cc1", "measure.unit": "%", "inhibition of growth at 10 µM": -0.39}

May I ask what inhibition of growth at 10 µM has been recorded for `O=C(CNc1c(Cl)cccc1Cl)Nc1ccc(-c2nc3ccccc3s2)cc1` ?
3.54

Now consider `O=C(CNCc1ccccc1)Nc1ccc(-c2nc3ccccc3s2)cc1` and answer again.
4.97

Now consider `CN1CCN(CC(=O)Nc2ccc(-c3nc4ccccc4s3)cc2)CC1` and answer again.
-5.35

Now consider `O=C(Cn1ccnc1)Nc1ccc(-c2nc3ccccc3s2)cc1` and answer again.
32.4

Now consider `O=C(CN1C(=O)C(=O)c2ccccc21)Nc1ccc(-c2nc3ccccc3s2)cc1` and answer again.
-12.4

---

System: CCRF-CEM
Assay: Growth inhibition of human CCRF-CEM cells at 10 uM incubated for 48 hrs by sulforhodamine B assay relative to control
Type: functional
Conditions: read-out: GI
experimental.endpoint: inhibition of growth at 10 µM
Give the value; after it, write the unit.

Recorded inhibition of growth at 10 µM, per entry:
{"line.notation": "COc1ccc(NCC(=O)Nc2ccc(-c3nc4ccccc4s3)cc2)cc1", "reported.measurement": "40.8%"}
{"line.notation": "O=C(CNc1ccc(Cl)cc1)Nc1ccc(-c2nc3ccccc3s2)cc1", "reported.measurement": "96.8%"}
{"line.notation": "O=C(CNc1nnc(-c2ccc(Cl)cc2)o1)Nc1ccc(-c2nc3ccccc3s2)cc1", "reported.measurement": "46.7%"}
{"line.notation": "O=C(Cn1cnc2ccccc21)Nc1ccc(-c2nc3ccccc3s2)cc1", "reported.measurement": "27.1%"}
{"line.notation": "Cc1ccc(NCC(=O)Nc2ccc(-c3nc4ccccc4s3)cc2)cc1", "reported.measurement": "60.1%"}

Consider the additional compound presented here.
May I ask what inhibition of growth at 10 µM has been recorded for `O=C(CN(c1ccccc1)c1ccccc1)Nc1ccc(-c2nc3ccccc3s2)cc1` ?
-6.75%
